Tested on: conversion of Amadori compounds to post Amadori advanced glycation endproducts (bovine serum albumin glycated by ribose)
Assay Protocol: Interrupted glycation: post-Amadori AGE formation of bovine serum albumin by ribose
Type: biochemical
Protocol Conditions: interrupted glycation of BSA by ribose, 37° C., 0.2 M phosphate buffer pH 7.5; read-out: half-maximal inhibitory concentration for inhibiting the conversion of Amadori compounds to post Amadori advanced glycation endproducts
Reported Property: IC50

Sure, the documented IC50 for Cc1ncc(CO)c(CNCc2c(CO)cnc(C)c2O)c1O is ~4 µM

###

# pIC50 listing for each entry below
Test system: conversion of Amadori compounds to post Amadori advanced glycation endproducts (bovine serum albumin glycated by ribose)
Assay Protocol: Interrupted glycation: post-Amadori AGE formation of bovine serum albumin by ribose
Assay type: biochemical
Protocol Conditions: half maximal inhibition of post-Amadori AGE formation; read-out: IC50
Please treat pIC50 as minus the base-10 logarithm of the molar concentration.

Sure, the documented pIC50 for Cc1ncc(CO)c(CNCc2c(CO)cnc(C)c2O)c1O [Dipyridoxylamine] is 5.40

Sure, the documented pIC50 for Cc1ncc(CO)c(CN)c1O [Pyridoxamine, pyridoxamine, reference compound] is 2.52
